Where these numbers come from: patent US20260285855A1

Property: Ki; scope: individual compounds
ASSAYED_SYSTEM: DDR1 (Homo sapiens, UniProt Q08345)
Construct: purchased Carna Biosciences
Sequence (Q08345 19-913): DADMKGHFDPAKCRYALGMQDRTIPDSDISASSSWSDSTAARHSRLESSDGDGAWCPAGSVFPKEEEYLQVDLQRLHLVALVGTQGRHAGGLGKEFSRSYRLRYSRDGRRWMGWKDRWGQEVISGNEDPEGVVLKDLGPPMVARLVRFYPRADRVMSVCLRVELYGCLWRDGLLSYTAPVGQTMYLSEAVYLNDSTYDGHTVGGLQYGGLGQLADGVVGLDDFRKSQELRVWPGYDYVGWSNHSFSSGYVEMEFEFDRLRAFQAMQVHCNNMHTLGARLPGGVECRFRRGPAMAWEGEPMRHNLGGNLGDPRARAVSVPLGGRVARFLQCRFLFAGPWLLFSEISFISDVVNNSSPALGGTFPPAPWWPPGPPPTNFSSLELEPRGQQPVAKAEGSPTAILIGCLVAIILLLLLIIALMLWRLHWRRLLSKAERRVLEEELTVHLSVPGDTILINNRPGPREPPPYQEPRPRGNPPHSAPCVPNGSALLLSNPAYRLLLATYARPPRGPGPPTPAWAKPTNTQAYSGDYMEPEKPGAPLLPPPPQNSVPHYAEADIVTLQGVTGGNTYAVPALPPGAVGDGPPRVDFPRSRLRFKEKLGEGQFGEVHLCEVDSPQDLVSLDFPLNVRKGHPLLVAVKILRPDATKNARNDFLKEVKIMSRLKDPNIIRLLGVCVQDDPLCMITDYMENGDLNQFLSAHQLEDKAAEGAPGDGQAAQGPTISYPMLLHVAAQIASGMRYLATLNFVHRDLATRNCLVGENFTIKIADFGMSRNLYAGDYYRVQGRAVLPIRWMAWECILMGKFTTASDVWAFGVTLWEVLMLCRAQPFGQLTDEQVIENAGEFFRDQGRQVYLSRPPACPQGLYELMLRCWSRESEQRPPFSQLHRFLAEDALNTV
METHOD_SUMMARY: LanthaScreen Europium Kinase Binding assay, DDR1
REPORTED_CONDITIONS: 5 nM DDR1, 20 nM Kinase Tracer 178, 1 h at rt; Ki from IC50 by Cheng-Prusoff; read-out: Ki DDR1

These solved cases illustrate the format of a correct answer.
Cc1ccc(C(F)(F)F)cc1NC(=O)OC1CC2(C1)CN(C(=O)c1cnn3ccn(C)c13)C2 [Example 270] ... < 5 nM
CN(C(=O)Nc1cncc(C(C)(F)F)c1)C1CC2(C1)CN(C(=O)c1cnn3ccn(C)c13)C2 [Example 173] ... < 5 nM
Cn1ccn2ncc(C(=O)N3CC4(CC(OC(=O)Nc5cc(C(F)(F)F)cnn5)C4)C3)c12 [Example 311] ... < 5 nM

Let's switch to this compound now.
Give the reported value of Ki for this record: O=C(Nc1cccc(C(F)(F)F)c1)NC1CC2(C1)CN(C(=O)c1ccnc3[nH]ccc13)C2 [Example 115]
< 5 nM

----------
Property: Ki; scope: individual compounds
ASSAYED_SYSTEM: DDR2 (Homo sapiens, UniProt Q16832)
Construct: purchased Life Technologies
Sequence (Q16832 22-855): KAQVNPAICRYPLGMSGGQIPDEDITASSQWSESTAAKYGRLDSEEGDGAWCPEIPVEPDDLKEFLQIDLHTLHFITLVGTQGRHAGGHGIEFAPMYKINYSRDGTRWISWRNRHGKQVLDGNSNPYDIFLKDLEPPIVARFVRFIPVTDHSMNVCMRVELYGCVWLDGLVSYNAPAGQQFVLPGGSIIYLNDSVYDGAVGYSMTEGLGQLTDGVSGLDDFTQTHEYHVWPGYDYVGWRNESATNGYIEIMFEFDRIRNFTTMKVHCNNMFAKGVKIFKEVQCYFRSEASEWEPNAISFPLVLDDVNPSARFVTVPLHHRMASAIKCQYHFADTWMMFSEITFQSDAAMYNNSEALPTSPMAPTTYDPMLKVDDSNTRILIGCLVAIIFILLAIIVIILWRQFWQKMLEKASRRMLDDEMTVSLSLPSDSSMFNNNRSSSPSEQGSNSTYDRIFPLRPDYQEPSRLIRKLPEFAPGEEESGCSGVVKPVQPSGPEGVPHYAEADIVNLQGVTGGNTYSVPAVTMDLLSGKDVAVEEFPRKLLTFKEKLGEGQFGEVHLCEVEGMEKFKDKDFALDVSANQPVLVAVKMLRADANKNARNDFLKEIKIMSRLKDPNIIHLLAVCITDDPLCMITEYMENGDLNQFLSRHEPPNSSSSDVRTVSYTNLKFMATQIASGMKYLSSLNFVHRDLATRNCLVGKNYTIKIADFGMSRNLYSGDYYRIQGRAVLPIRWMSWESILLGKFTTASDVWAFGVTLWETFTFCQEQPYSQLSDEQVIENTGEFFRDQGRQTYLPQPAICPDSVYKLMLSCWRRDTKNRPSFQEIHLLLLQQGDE
METHOD_SUMMARY: LanthaScreen Europium Kinase Binding assay, DDR2
REPORTED_CONDITIONS: 5 nM DDR2, 10 nM Kinase Tracer 178, 1 h at rt; Ki from IC50 by Cheng-Prusoff; read-out: Ki DDR2

These solved cases illustrate the format of a correct answer.
Cn1ccc2ncnc(C(=O)N3CC4(CC(NC(=O)Nc5cccc(C(F)(F)F)c5)C4)C3)c21 [Example 160] ... 5 to 25 nM
CN(C(=O)Nc1cc(C(F)F)ccn1)C1CC2(C1)CN(C(=O)c1cnn3ccsc13)C2 [Example 255] ... 5 to 25 nM

Give the reported value of Ki for this record: CN(C(=O)Nc1cccc(C(F)(F)F)c1)C1CC2(C1)CN(C(=O)c1cnn3ccn(C)c13)C2 [Example 134]
5 to 25 nM

Give the reported value of Ki for this record: CN(C(=O)Nc1cccc(C2(C(F)(F)F)CC2)c1)C1CC2(C1)CN(C(=O)c1cnn3ccn(C)c13)C2 [Example 198]
< 5 nM

----------
ASSAYED_SYSTEM: DDR2 (Homo sapiens, UniProt Q16832)
Construct: purchased Life Technologies
METHOD_SUMMARY: LanthaScreen Europium Kinase Binding assay, DDR2
REPORTED_CONDITIONS: 5 nM DDR2, 10 nM Kinase Tracer 178, 1 h at rt; Ki from IC50 by Cheng-Prusoff; read-out: Ki DDR2
MEASURED_ENDPOINT: Ki

CN(C(=O)Nc1cccc(C(F)(F)F)c1)C1CC2(C1)CN(C(=O)c1ccnc3[nH]ncc13)C2 ... 5 to 25 nM
O=C(Nc1cccc(SC(F)(F)F)c1)NC1CC2(C1)CN(C(=O)c1ccnc3[nH]ncc13)C2 ... < 5 nM
Cc1ccc(OC(F)(F)F)cc1NC(=O)N(C)C1CC2(C1)CN(C(=O)c1cnn3ccn(C)c13)C2 ... 5 to 25 nM
Cc1cc(NC(=O)N(C)C2CC3(C2)CN(C(=O)c2ncnc4[nH]ccc24)C3)cc(C(F)(F)F)c1 ... 5 to 25 nM
O=C(Nc1ccc(C(F)(F)F)cn1)NC1CC2(C1)CN(c1cnc3[nH]ncc3c1)C2 ... 5 to 25 nM
Cn1ccn2ncc(C(=O)N3CC4(CC(OC(=O)Nc5cncc(OC(F)(F)F)c5)C4)C3)c12 ... < 5 nM

Give the reported value of Ki for this record: `CN(C(=O)Nc1cc(CO)cc(C(F)(F)F)c1)C1CC2(C1)CN(C(=O)c1cnn3ccsc13)C2`
5 to 25 nM
